molecular target: human Claudin 18.2 (CLDN18.2) (human, UniProt P56856-2 1-261); test: cell-based or functional assay
Outcome Measure: ADCC EC50, NUGC4-CLDN18.2 cells, PBMC (nM)

{"Binder": "reference antibody 175D10 (xi175D10) (antibody, human IgG1, kappa, V domains shown, Fc variant D356/L358; also called chimeric 175D10) VH: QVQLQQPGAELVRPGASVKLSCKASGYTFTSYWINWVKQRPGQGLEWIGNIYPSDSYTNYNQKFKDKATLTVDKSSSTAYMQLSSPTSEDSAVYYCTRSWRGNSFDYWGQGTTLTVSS VL: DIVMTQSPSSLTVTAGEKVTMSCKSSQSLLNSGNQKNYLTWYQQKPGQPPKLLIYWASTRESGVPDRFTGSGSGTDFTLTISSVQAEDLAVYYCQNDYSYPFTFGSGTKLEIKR", "Outcome Measure": "ADCC EC50, NUGC4-CLDN18.2 cells, PBMC", "Data Value": 9.21}
